Data provenance: patent US10414718B2

Experimental target: κ opioid receptor (Homo sapiens, UniProt P41145)
Sequence (P41145 whole entry): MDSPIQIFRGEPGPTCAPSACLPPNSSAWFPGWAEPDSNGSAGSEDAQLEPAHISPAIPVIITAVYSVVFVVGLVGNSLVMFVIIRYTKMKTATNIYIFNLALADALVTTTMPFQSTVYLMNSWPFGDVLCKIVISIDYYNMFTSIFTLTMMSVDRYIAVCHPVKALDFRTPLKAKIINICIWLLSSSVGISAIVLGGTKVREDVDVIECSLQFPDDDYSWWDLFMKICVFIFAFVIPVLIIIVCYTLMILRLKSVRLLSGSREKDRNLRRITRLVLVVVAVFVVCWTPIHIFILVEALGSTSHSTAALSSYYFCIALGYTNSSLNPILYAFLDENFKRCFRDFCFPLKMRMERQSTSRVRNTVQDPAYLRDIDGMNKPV
Protocol text: FLIPR intracellular calcium signal test, HEK293-κ cells
Assay setup: EC50 (activation) test, read-out: Kapp receptor EC50
Procedure: Fluorescence imaging plate reader FLIPR was used to detect changes of intracellular calcium signals. […] 3) Suspending the cells with 10-15 mL culture medium in each T150 cm^2 cell culture flask, centrifugating at 800 rpm for 5 minutes, and resuspending the cells with 10 mL culture medium, aspirating 1 mL cell resuspension to be counted with Vi-cell; […] 4) IC50 test: In FLIPR, successively placing 4× EC80 plate, cell plate, FLIPR tip, running the program and reading the fluorescence value. […]
Counter-ions that a name gives are not always drawn.

>  <Compound>
C[C@@]12CCOCC[C@@H](Cc3ccc(O)cc31)[C@@H]2N

>  <Experimental target>
κ opioid receptor (Homo sapiens, UniProt P41145)

>  <EC50>
> 100 µM

$$$$
>  <Compound>
CCCC12CCCCC(Cc3c(F)cc(O)cc31)C2N (centres unmarked)

>  <Experimental target>
κ opioid receptor (Homo sapiens, UniProt P41145)

>  <EC50>
> 100 µM

$$$$
>  <Compound>
CC12CCCCCC(Cc3ccc(O)cc31)C2N (centres unmarked) [Compound 2, reference compound]

>  <Experimental target>
κ opioid receptor (Homo sapiens, UniProt P41145)

>  <EC50>
> 100 µM

$$$$
>  <Compound>
CC12CCOCCC(Cc3ccc(O)cc31)C2N (centres unmarked)

>  <Experimental target>
κ opioid receptor (Homo sapiens, UniProt P41145)

>  <EC50>
> 100 µM

$$$$
>  <Compound>
CC(C)c1cc2c(cc1O)C1(C)CCCCCC(C2)C1N (centres unmarked)

>  <Experimental target>
κ opioid receptor (Homo sapiens, UniProt P41145)

>  <EC50>
10 to 100 µM

$$$$
>  <Compound>
CC12CCCCC(Cc3c(F)cc(O)cc31)C2N (single isomer, unassigned) [Compound 32]

>  <Experimental target>
κ opioid receptor (Homo sapiens, UniProt P41145)

>  <EC50>
0.1 to 1 µM

$$$$
>  <Compound>
CC12CCCCCC(Cc3c(F)cc(O)cc31)C2N (centres unmarked)

>  <Experimental target>
κ opioid receptor (Homo sapiens, UniProt P41145)

>  <EC50>
> 100 µM

$$$$
>  <Compound>
CC12CCCCCC(Cc3cc(C#N)c(O)cc31)C2N (centres unmarked)

>  <Experimental target>
κ opioid receptor (Homo sapiens, UniProt P41145)

>  <EC50>
> 100 µM

$$$$
>  <Compound>
Cc1cc(O)cc2c1CC1CCCCCC2(C)C1N (centres unmarked)

>  <Experimental target>
κ opioid receptor (Homo sapiens, UniProt P41145)

>  <EC50>
> 100 µM

$$$$
>  <Compound>
CC12CCCCCC(Cc3cc(C4CC4)c(O)cc31)C2N (centres unmarked)

>  <Experimental target>
κ opioid receptor (Homo sapiens, UniProt P41145)

>  <EC50>
10 to 100 µM

$$$$
>  <Compound>
CC12CCCCC(Cc3c(F)cc(O)cc31)C2N (single isomer, unassigned) [Compound 33]

>  <Experimental target>
κ opioid receptor (Homo sapiens, UniProt P41145)

>  <EC50>
0.1 to 1 µM

$$$$
>  <Compound>
CC12CCCCCC(Cc3cc(F)c(O)cc31)C2N (centres unmarked) [Hydrochloride of Compound 17]

>  <Experimental target>
κ opioid receptor (Homo sapiens, UniProt P41145)

>  <EC50>
> 100 µM

$$$$
>  <Compound>
CC12CCCCCC(Cc3ccc(O)c(F)c31)C2N (centres unmarked)

>  <Experimental target>
κ opioid receptor (Homo sapiens, UniProt P41145)

>  <EC50>
> 100 µM

$$$$
>  <Compound>
CC12CCCCCC(Cc3cc(Cl)c(O)c(Cl)c31)C2N (centres unmarked)

>  <Experimental target>
κ opioid receptor (Homo sapiens, UniProt P41145)

>  <EC50>
> 100 µM

$$$$
>  <Compound>
C[C@]12CCCCC[C@@H](Cc3c(Cl)cc(O)cc31)[C@@H]2N

>  <Experimental target>
κ opioid receptor (Homo sapiens, UniProt P41145)

>  <EC50>
> 100 µM

$$$$
>  <Compound>
CC12CCCCCC(Cc3cc(O)c(O)cc31)C2N (centres unmarked)

>  <Experimental target>
κ opioid receptor (Homo sapiens, UniProt P41145)

>  <EC50>
1 to 10 µM

$$$$
>  <Compound>
CC(C)CC12CCCCC(Cc3c(F)cc(O)cc31)C2N (centres unmarked)

>  <Experimental target>
κ opioid receptor (Homo sapiens, UniProt P41145)

>  <EC50>
> 100 µM

$$$$
>  <Compound>
CCc1cc(O)cc2c1CC1CCCCCC2(C)C1N (centres unmarked)

>  <Experimental target>
κ opioid receptor (Homo sapiens, UniProt P41145)

>  <EC50>
> 100 µM

$$$$
>  <Compound>
CC(C)c1cc(O)cc2c1CC1CCCCCC2(C)C1N (centres unmarked)

>  <Experimental target>
κ opioid receptor (Homo sapiens, UniProt P41145)

>  <EC50>
> 100 µM

$$$$
>  <Compound>
CC12CCCCCC(Cc3c(CO)cc(O)cc31)C2N (centres unmarked)

>  <Experimental target>
κ opioid receptor (Homo sapiens, UniProt P41145)

>  <EC50>
> 100 µM

$$$$
